# TESTED_TARGET: PDE3A recombinant enzyme (Homo sapiens (Human), UniProt Q14432)
# Sequence (Q14432 whole entry): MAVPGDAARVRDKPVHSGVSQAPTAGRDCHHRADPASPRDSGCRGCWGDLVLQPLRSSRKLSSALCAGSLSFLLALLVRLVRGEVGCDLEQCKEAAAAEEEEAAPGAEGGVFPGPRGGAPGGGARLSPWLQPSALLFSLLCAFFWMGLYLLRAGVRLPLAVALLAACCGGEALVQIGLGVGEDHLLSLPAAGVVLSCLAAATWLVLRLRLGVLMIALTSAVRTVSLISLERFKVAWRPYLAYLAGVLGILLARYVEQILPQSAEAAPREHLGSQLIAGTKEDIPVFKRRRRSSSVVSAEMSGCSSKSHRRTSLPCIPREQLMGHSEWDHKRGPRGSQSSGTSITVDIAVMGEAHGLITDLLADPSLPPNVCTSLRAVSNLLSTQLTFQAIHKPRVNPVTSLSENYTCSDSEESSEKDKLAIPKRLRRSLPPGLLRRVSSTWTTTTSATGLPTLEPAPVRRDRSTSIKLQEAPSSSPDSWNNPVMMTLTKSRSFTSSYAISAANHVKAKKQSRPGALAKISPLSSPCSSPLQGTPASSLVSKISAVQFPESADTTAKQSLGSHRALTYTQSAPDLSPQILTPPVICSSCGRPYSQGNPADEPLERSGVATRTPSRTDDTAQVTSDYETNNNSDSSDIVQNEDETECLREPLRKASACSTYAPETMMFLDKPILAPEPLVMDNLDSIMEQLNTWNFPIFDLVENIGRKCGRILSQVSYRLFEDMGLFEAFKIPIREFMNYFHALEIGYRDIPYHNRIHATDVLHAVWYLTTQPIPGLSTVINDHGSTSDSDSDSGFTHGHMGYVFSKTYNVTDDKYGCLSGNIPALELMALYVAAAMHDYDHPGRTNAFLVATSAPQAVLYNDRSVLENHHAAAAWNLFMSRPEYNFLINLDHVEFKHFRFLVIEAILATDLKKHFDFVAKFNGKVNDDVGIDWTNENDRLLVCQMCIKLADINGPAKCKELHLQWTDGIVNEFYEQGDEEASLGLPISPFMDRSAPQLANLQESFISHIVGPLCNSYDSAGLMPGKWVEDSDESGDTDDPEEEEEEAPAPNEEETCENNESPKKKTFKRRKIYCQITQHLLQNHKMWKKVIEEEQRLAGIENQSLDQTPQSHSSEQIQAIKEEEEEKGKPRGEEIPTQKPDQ
# EXPERIMENT_SUMMARY: In vitro assay of inhibitory activity against PDE 3A enzyme (FP, FAM-cAMP)
# Type: biochemical
# APPLIED_CONDITIONS: class symbols; read-out: PDE 3A IC50
# From the text: 1. In Vitro Assay of the Inhibitory Activity of Compounds Against PDE 3A and PDE 4B2 Enzymes • Envision 2104 Multilabel Reader (PerkinElmer) • Black 96-well Plate (Cat #6005540, PerkinElmer) • PDE3A Assay Kit (BPS, Cat. 79736), PDE4B2 Assay Kit (BPS, Cat. 60343) • PDE3A recombinant enzyme • PDE4B2 recombinant enzyme • FAM-Cyclic-3′, 5′-AMP • PDE assay buffer • Binding Agent • Binding Agent Diluent (cAMP) […]
Overview of reported IC50 across a group of compounds:

Field: example entries. Status: answers known.
COc1cc2c(cc1OC)-c1c/c(=N\c3c(C)cc(C4CC4)cc3C)n(CCNC(N)=O)c(=O)n1CC2 < 50 nM
[2H]C([2H])([2H])Oc1cc2c(cc1OC)CCn1c-2c/c(=N\c2c(C)cc(C)cc2C)n(CCNC(N)=O)c1=O < 50 nM
COc1cc2c(cc1OC)-c1c/c(=N\c3c(C)cc(F)cc3C)n(CCNC(N)=O)c(=O)n1CC2 50 to 100 nM

Ask: Requested field: IC50. Item: "[2H]C([2H])([2H])Oc1cc2c(cc1OC)-c1c/c(=N\c3c(C)cc(C)cc3C)n(CCNC(N)=O)c(=O)n1CC2"
Result: < 50 nM
